# testName: Plasma pharmacokinetics after single oral sustained release dose
# Format: in vivo, human
# conditionsUsed: human, plasma, po, 25 mg, single 25 mg SR oral dose, N=12; read-out: Half-life or t1/2, Mean (converted)
measuredAttribute: half-life

{"compound": "N#CCC1(n2cc(-c3ncnc4[nH]ccc34)cn2)CN(C2CCN(C(=O)c3ccnc(C(F)(F)F)c3F)CC2)C1", "measuredAttribute": "half-life", "observedValue": "12.3 h"}

----------
# testName: Plasma pharmacokinetics after single oral sustained release dose
# Type: in vivo, human
# conditionsUsed: human, plasma, po, 25 mg, plasma, single 25 mg SR oral dose, N=12; read-out: AUC0-inf, Geometric Mean
measuredAttribute: AUC(0-inf) (µM·h)

{"compound": "N#CCC1(n2cc(-c3ncnc4[nH]ccc34)cn2)CN(C2CCN(C(=O)c3ccnc(C(F)(F)F)c3F)CC2)C1", "measuredAttribute": "AUC(0-inf)", "unitSpec": "µM·h", "observedValue": 0.111}
